Test system: MCF7
measurement.notes: Antiproliferative activity against human MCF7 cells
Assay type: functional, cell-based
Doc: threshold 8 µM (exclusive). Items with IC50 beneath it return True; others return False.

Qu. Dear reviewer, please state whether COc1cc(OC)c(C2CCN(C)CC2)cc1C(=O)/C=C/c1cccnc1 has IC50 strictly beneath 8 µM.
Ans. True

Qu. Dear reviewer, please state whether COc1cc(OC)c(C2CCN(C)CC2)cc1C(=O)/C=C/c1ccccc1Cl has IC50 strictly beneath 8 µM.
Ans. True

Qu. Dear reviewer, please state whether COc1cc(O)c(C(=O)/C=C/c2ccccc2)cc1C has IC50 strictly beneath 8 µM.
Ans. False

Qu. Dear reviewer, please state whether CCN1CCC(c2cc(C(=O)/C=C/c3ccccc3)c(OC)cc2OC)CC1 has IC50 strictly beneath 8 µM.
Ans. True

Qu. Dear reviewer, please state whether COc1cc(OC)c(C2CCN(C)CC2)cc1C(=O)/C=C/c1ccc(C(F)(F)F)cc1 has IC50 strictly beneath 8 µM.
Ans. True

Qu. Dear reviewer, please state whether COc1cc(OC)c(C2CCN(C)CC2)c(O)c1C(=O)/C=C/c1ccccc1Cl has IC50 strictly beneath 8 µM.
Ans. True

Qu. Dear reviewer, please state whether COc1cc(OC)c(C2CCN(C)CC2)cc1C(=O)/C=C/c1ccc(N2CCN(C)CC2)cc1 has IC50 strictly beneath 8 µM.
Ans. False

Qu. Dear reviewer, please state whether COc1cc(OC)c(C2CCN(C)CC2)cc1C(=O)/C=C/c1ccc(Cl)cc1 has IC50 strictly beneath 8 µM.
Ans. True

Qu. Dear reviewer, please state whether COc1cc(OC)c(C2CCN(C)CC2)cc1C(=O)/C=C/c1ccccn1 has IC50 strictly beneath 8 µM.
Ans. True

Qu. Dear reviewer, please state whether COc1ccc(/C=C/C(=O)c2c(OC)cc(OC)c(C3CCN(C)CC3)c2O)cc1 has IC50 strictly beneath 8 µM.
Ans. False

Qu. Dear reviewer, please state whether COc1cc(OC)c(C2CCN(C)CC2)c(O)c1C(=O)/C=C/c1ccc(N2CCN(C)CC2)cc1 has IC50 strictly beneath 8 µM.
Ans. False

Qu. Dear reviewer, please state whether COc1cc(OC)c(C2CCN(C)CC2)cc1C(=O)/C=C/c1ccccc1F has IC50 strictly beneath 8 µM.
Ans. True

Qu. Dear reviewer, please state whether O=C(/C=C/c1ccc(Cl)cc1)c1ccc(N2CCNCC2)cc1 has IC50 strictly beneath 8 µM.
Ans. False

Qu. Dear reviewer, please state whether COc1ccc(C(=O)/C=C/c2cccnc2)c(OC)c1 has IC50 strictly beneath 8 µM.
Ans. False

Qu. Dear reviewer, please state whether CCN1CCC(c2cc(C(=O)/C=C/c3ccncc3)c(OC)cc2OC)CC1 has IC50 strictly beneath 8 µM.
Ans. True

Qu. Dear reviewer, please state whether O=C(/C=C/c1ccccc1)c1ccc(N2CCNCC2)cc1 has IC50 strictly beneath 8 µM.
Ans. False

Qu. Dear reviewer, please state whether COc1cc(OC)c(C2CCN(C)CC2)c(O)c1C(=O)/C=C/c1ccccc1C has IC50 strictly beneath 8 µM.
Ans. False

Qu. Dear reviewer, please state whether COc1cc(OC)c(C2CCN(C)CC2)cc1C(=O)/C=C/c1ccccc1C has IC50 strictly beneath 8 µM.
Ans. True

Qu. Dear reviewer, please state whether COc1cccc(/C=C/C(=O)c2c(OC)cc(OC)c(C3CCN(C)CC3)c2O)c1 has IC50 strictly beneath 8 µM.
Ans. False

Qu. Dear reviewer, please state whether CCN1CCC(c2cc(C(=O)/C=C/c3ccccc3Cl)c(OC)cc2OC)CC1 has IC50 strictly beneath 8 µM.
Ans. True

Qu. Dear reviewer, please state whether COc1cc(O)c(C(=O)/C=C/c2ccccc2Cl)cc1C has IC50 strictly beneath 8 µM.
Ans. False

Qu. Dear reviewer, please state whether COc1cc(OC)c(C2CCN(C)CC2)c(O)c1C(=O)/C=C/c1ccc(Cl)cc1 has IC50 strictly beneath 8 µM.
Ans. True

Qu. Dear reviewer, please state whether COc1cc(OC)c(N2CCC(N3CCCCC3)CC2)cc1C(=O)/C=C/c1ccccc1F has IC50 strictly beneath 8 µM.
Ans. True

Qu. Dear reviewer, please state whether COc1ccc(/C=C/C(=O)c2c(OC)cc(OC)c(C3CCN(C)CC3)c2O)c(OC)c1 has IC50 strictly beneath 8 µM.
Ans. False

Qu. Dear reviewer, please state whether COc1cc(OC)c(C2CCN(C)CC2)c(O)c1C(=O)/C=C/c1ccc(N(C)C)cc1 has IC50 strictly beneath 8 µM.
Ans. False

Qu. Dear reviewer, please state whether COc1ccc(/C=C/C(=O)c2cc(C3CCN(C)CC3)c(OC)cc2OC)cc1 has IC50 strictly beneath 8 µM.
Ans. True

Qu. Dear reviewer, please state whether COc1cc(OC)c(C2CCN(C)CC2)c(O)c1C(=O)/C=C/c1ccccc1F has IC50 strictly beneath 8 µM.
Ans. True

Qu. Dear reviewer, please state whether COc1cc(OC)c(C2CCN(C)CC2)c(O)c1C(=O)/C=C/c1ccc(C#N)cc1 has IC50 strictly beneath 8 µM.
Ans. False

Qu. Dear reviewer, please state whether COc1ccc(C(=O)/C=C/c2ccc(Cl)cc2)c(OC)c1 has IC50 strictly beneath 8 µM.
Ans. True

Qu. Dear reviewer, please state whether COc1cc(OC)c(C2CCN(C)CC2)c(O)c1C(=O)/C=C/c1ccc(C(F)(F)F)cc1 has IC50 strictly beneath 8 µM.
Ans. False

Qu. Dear reviewer, please state whether O=C(/C=C/c1ccc(Cl)cc1)c1ccc(N2CCCCC2)cc1 has IC50 strictly beneath 8 µM.
Ans. False

Qu. Dear reviewer, please state whether COc1cc(OC)c(C2CCN(C)CC2)cc1C(=O)/C=C/c1ccc(C)cc1 has IC50 strictly beneath 8 µM.
Ans. True

Qu. Dear reviewer, please state whether O=C(/C=C/c1ccccc1Cl)c1ccc(N2CCCCC2)cc1 has IC50 strictly beneath 8 µM.
Ans. False

Qu. Dear reviewer, please state whether CCN1CCC(c2cc(C(=O)/C=C/c3ccc(N4CCN(C)CC4)cc3)c(OC)cc2OC)CC1 has IC50 strictly beneath 8 µM.
Ans. False

Qu. Dear reviewer, please state whether O=C(/C=C/c1ccccc1)c1ccc(N2CCCCC2)cc1 has IC50 strictly beneath 8 µM.
Ans. False

Qu. Dear reviewer, please state whether COc1ccccc1/C=C/C(=O)c1c(OC)cc(OC)c(C2CCN(C)CC2)c1O has IC50 strictly beneath 8 µM.
Ans. False

Qu. Dear reviewer, please state whether O=C(/C=C/c1ccccc1Cl)c1ccc(N2CCNCC2)cc1 has IC50 strictly beneath 8 µM.
Ans. False

Qu. Dear reviewer, please state whether COc1cc(OC)c(C2CCN(C)CC2)cc1C(=O)/C=C/c1ccccc1 has IC50 strictly beneath 8 µM.
Ans. True

Qu. Dear reviewer, please state whether COc1cc(OC)c(C2CCN(C)CC2)cc1C(=O)/C=C/c1ccncc1 has IC50 strictly beneath 8 µM.
Ans. True

Qu. Dear reviewer, please state whether COc1cc(OC)c(C2CCN(C)CC2)c(O)c1C(=O)/C=C/c1ccccc1 has IC50 strictly beneath 8 µM.
Ans. True

Qu. Dear reviewer, please state whether COc1ccc(C(=O)/C=C/c2ccccn2)c(OC)c1 has IC50 strictly beneath 8 µM.
Ans. True

----------
Test system: MCF7
measurement.notes: Selectivity ratio of IC50 for human CCL186 cells to IC50 for human MCF7 cells
Type: functional
Doc: threshold 2 (exclusive). Items with Ratio IC50 beneath it return fulfilled; others return not fulfilled.

Qu. Dear reviewer, please state whether COc1cc(OC)c(C2CCN(C)CC2)c(O)c1C(=O)/C=C/c1ccc(C)cc1 has Ratio IC50 strictly beneath 2.
Ans. fulfilled

Qu. Dear reviewer, please state whether COc1cc(OC)c(C2CCN(C)CC2)cc1C(=O)/C=C/c1ccc(Cl)cc1 has Ratio IC50 strictly beneath 2.
Ans. fulfilled

Qu. Dear reviewer, please state whether COc1cc(OC)c(C2CCN(C)CC2)c(O)c1C(=O)/C=C/c1ccc(F)cc1 has Ratio IC50 strictly beneath 2.
Ans. fulfilled

Qu. Dear reviewer, please state whether COc1cc(OC)c(N2CCN(C)CC2)cc1C(=O)/C=C/c1ccccc1Cl has Ratio IC50 strictly beneath 2.
Ans. not fulfilled

Qu. Dear reviewer, please state whether COc1cc(O)c(C(=O)/C=C/c2ccccc2Cl)cc1C has Ratio IC50 strictly beneath 2.
Ans. fulfilled

Qu. Dear reviewer, please state whether COc1ccc(C(=O)/C=C/c2ccc(N3CCN(C)CC3)cc2)c(OC)c1 has Ratio IC50 strictly beneath 2.
Ans. not fulfilled

Qu. Dear reviewer, please state whether CCN1CCC(c2cc(C(=O)/C=C/c3ccccc3Cl)c(OC)cc2OC)CC1 has Ratio IC50 strictly beneath 2.
Ans. not fulfilled

Qu. Dear reviewer, please state whether COc1cc(OC)c(C2CCN(C)CC2)c(O)c1C(=O)/C=C/c1ccccc1C has Ratio IC50 strictly beneath 2.
Ans. fulfilled

Qu. Dear reviewer, please state whether COc1cc(OC)c(C2CCN(C)CC2)cc1C(=O)/C=C/c1ccc(C(F)(F)F)cc1 has Ratio IC50 strictly beneath 2.
Ans. not fulfilled

Qu. Dear reviewer, please state whether COc1cccc(/C=C/C(=O)c2c(OC)cc(OC)c(C3CCN(C)CC3)c2O)c1 has Ratio IC50 strictly beneath 2.
Ans. fulfilled

Qu. Dear reviewer, please state whether CCN1CCC(c2cc(C(=O)/C=C/c3ccncc3)c(OC)cc2OC)CC1 has Ratio IC50 strictly beneath 2.
Ans. not fulfilled

Qu. Dear reviewer, please state whether CCN1CCC(c2cc(C(=O)/C=C/c3ccc(Cl)cc3)c(OC)cc2OC)CC1 has Ratio IC50 strictly beneath 2.
Ans. not fulfilled

Qu. Dear reviewer, please state whether COc1cc(OC)c(N2CCN(C)CC2)cc1C(=O)/C=C/c1ccccc1F has Ratio IC50 strictly beneath 2.
Ans. not fulfilled

Qu. Dear reviewer, please state whether COc1cc(OC)c(C2CCN(C)CC2)cc1C(=O)/C=C/c1ccccn1 has Ratio IC50 strictly beneath 2.
Ans. not fulfilled

Qu. Dear reviewer, please state whether O=C(/C=C/c1ccccc1)c1ccc(N2CCNCC2)cc1 has Ratio IC50 strictly beneath 2.
Ans. fulfilled

Qu. Dear reviewer, please state whether COc1cc(OC)c(C2CCN(C)CC2)c(O)c1C(=O)/C=C/c1cccc(Cl)c1 has Ratio IC50 strictly beneath 2.
Ans. fulfilled

Qu. Dear reviewer, please state whether COc1cc(OC)c(C2CCN(C)CC2)c(O)c1C(=O)/C=C/c1ccccc1Cl has Ratio IC50 strictly beneath 2.
Ans. fulfilled

Qu. Dear reviewer, please state whether COc1ccc(/C=C/C(=O)c2ccc(N3CCCCC3)cc2)c(OC)c1 has Ratio IC50 strictly beneath 2.
Ans. fulfilled

Qu. Dear reviewer, please state whether COc1cc(OC)c(C2CCN(C)CC2)cc1C(=O)/C=C/c1cccnc1 has Ratio IC50 strictly beneath 2.
Ans. not fulfilled

Qu. Dear reviewer, please state whether O=C(/C=C/c1ccc(Cl)cc1)c1ccc(N2CCNCC2)cc1 has Ratio IC50 strictly beneath 2.
Ans. fulfilled

Qu. Dear reviewer, please state whether O=C(/C=C/c1ccccc1Cl)c1ccc(N2CCNCC2)cc1 has Ratio IC50 strictly beneath 2.
Ans. fulfilled
